System: Human immunodeficiency virus 1
procedure-details: Antiviral activity against HIV1 3B in human C8166 cells assessed as inhibition of virus-induced cytopathogenicity
Assay type: functional, organism-based
details: Human immunodeficiency virus 1, 3B
Entries annotated with measured pEC50
Reminder that pEC50 is minus the log10 of a molar concentration.

Previously resolved entries follow.
For COc1cc2c(c(OC)c1OC)-c1c(cc(OC)c(OC)c1OC(=O)c1ccccc1)[C@H](O)[C@H](C)[C@H](C)C2 [TIEGUSANIN C] , what is its reported pEC50?
4.73

What does the record list as pEC50 for COc1cc2c(c(OC)c1OC)-c1c(cc3c(c1OC)OCO3)[C@H](OC(=O)c1ccccc1)[C@H](C)[C@](C)(O)[C@H]2OC(=O)/C=C/c1ccccc1 ?
4.29

Which pEC50 is listed for COc1cc(C[C@@H](C)[C@@H](C)Cc2ccc(OC)c(OC)c2)ccc1O ?
5.54

Let us move to another entry and its pEC50.
Quick one: pEC50 of COc1ccc(C[C@@H](C)[C@@H](C)Cc2ccc(OC)c(OC)c2)cc1OC [TERAMEPROCOL] ?
4.83

----------
Tested on: Human immunodeficiency virus 1
procedure-details: Antiviral activity against HIV1 3B in human C8166 cells assessed as inhibition of virus-induced cytopathogenicity
Assay type: functional, organism-based
details: Human immunodeficiency virus 1, 3B
pEC50: −log10 of the molar value.
Label Yes when pEC50 is at or above 5; anything below gets No.

Some solved entries appear below for comparison.
Answer whether pEC50 of COc1ccc([C@H]2O[C@H](c3ccc4c(c3)OCO4)[C@@H](C)[C@H]2C)cc1OC is greater than or equal to 5.
No

Does COc1cc2c(c(OC)c1OC)-c1c(cc3c(c1OC)OCO3)[C@H](OC(C)=O)[C@H](C)[C@H](C)C2 [KADSURIN] have a reported pEC50 of at least 5?
No

Please check the record COc1ccc([C@@H]2O[C@H](c3ccc4c(c3)OCO4)[C@@H](C)[C@@H]2C)cc1O and state if its pEC50 is at or above 5.
Yes

Say whether Cc1cn([C@H]2C[C@H](N=[N+]=[N-])[C@@H](CO)O2)c(=O)[nH]c1=O [ZIDOVUDINE] shows pEC50 of 5 or more.
Yes

---
Could you tell me if the measured pEC50 of C/C=C(\C)C(=O)Oc1c(OC)c(OC)cc2c1-c1c(cc(OC)c(OC)c1OC)[C@H](O)[C@H](C)[C@H](C)C2 [METHYL SCHISANTHERIN F] reaches 5 or more?
No

----------
procedure-details: Cytotoxicity against human C8166 cells by MTT assay
Format: cell-based
measured-parameter: CC50 (µM)
Report only the number, with the unit µM understood.

Quick one: CC50 for CCCCCC(=O)O[C@H]1c2cc3c(c(OC)c2-c2c(cc(OC)c(OC)c2OC)[C@H](OC(=O)c2ccccc2)[C@@](C)(O)[C@H]1C)OCO3 ?
119

Need CC50 of COc1cc(C[C@@H](C)[C@@H](C)Cc2ccc(OC)c(OC)c2)ccc1O , thanks.
17.2

Give its CC50 value. Item: COc1ccc(CC(C)C(C)Cc2cc(OC)c(OC)c(OC)c2)cc1OC (configuration not stated) [TIEGUSANIN N]
24.5

----------
Tested on: Human immunodeficiency virus 1
procedure-details: Antiviral activity against HIV1 3B in human C8166 cells assessed as inhibition of virus-induced cytopathogenicity
Format: functional, organism-based
details: Human immunodeficiency virus 1, 3B
# Lookup of reported EC50 keyed by entry
Numbers only here, please. The scale is µM.

See these solved cases before continuing.
I'd like to know its EC50. The compound in question is COc1c(O)cc2c(c1OC)-c1c(cc3c(c1OC)OCO3)C[C@@H](C)[C@@H](C)[C@H]2OC(=O)/C=C/c1ccccc1
7.3

Record request: EC50 value, item COc1cc2c(cc1O)C[C@@H](C)[C@@H](C)[C@@H]2c1ccc(OC)c(OC)c1
4.5

Dear colleague, I am looking for the recorded EC50 of the following compound: COc1cc2c(c(OC)c1OC)-c1c(cc3c(c1OC)OCO3)C(=O)[C@@H](C)[C@@H](C)C2
20.4

Consider the compound shown here: COc1cc(C[C@@H](C)[C@@H](C)Cc2ccc(O)c(OC)c2)ccc1O [MESODIHYDROGUAIARETIC ACID] What is its recorded EC50?
4

Suppose we examine the compound C/C=C(\C)C(=O)O[C@H]1c2cc(OC)c(OC)c(OC)c2-c2c(cc3c(c2OC)OCO3)[C@H](OC(=O)c2ccccc2)[C@H](C)[C@H]1C ; what EC50 value has been reported?
15.4

Entry under review: CCCCCC(=O)O[C@H]1c2cc3c(c(OC)c2-c2c(cc(OC)c(OC)c2OC)[C@H](OC(=O)c2ccccc2)[C@@](C)(O)[C@H]1C)OCO3 . Reported EC50?
28.7

Quick check: EC50 of COc1ccc(CC(C)C(C)Cc2cc(OC)c(OC)c(OC)c2)cc1OC (stereo not given) ?
9.4

For C/C=C(\C)C(=O)O[C@H]1c2cc(OC)c(OC)c(OC)c2-c2c(cc3c(c2OC)OCO3)[C@H](OC(=O)/C=C/c2ccccc2)[C@H](C)[C@]1(C)O , what is its reported EC50?
7.9

Further cases:
EC50 for COc1cc2c(c(OC)c1OC)-c1c(cc3c(c1OC)OCO3)[C@H](OC(=O)c1ccccc1)[C@H](C)[C@](C)(O)[C@H]2OC(=O)c1ccccc1 ?
22.9

What value of EC50 has been reported for the following compound? CC[C@H](C)C(=O)Oc1c(OC)c(OC)cc2c1-c1c(cc(OC)c(OC)c1OC)[C@H](O)[C@H](C)[C@H](C)C2
29.8
